This collection of values is drawn from patent US20260022143A1.

Quick list: pIC50 per entry.
- Subject of test: IL-23R (Homo sapiens, UniProt Q5VWK5)
- Construct: host or cells: HEK293
- Sequence (Q5VWK5 24-629): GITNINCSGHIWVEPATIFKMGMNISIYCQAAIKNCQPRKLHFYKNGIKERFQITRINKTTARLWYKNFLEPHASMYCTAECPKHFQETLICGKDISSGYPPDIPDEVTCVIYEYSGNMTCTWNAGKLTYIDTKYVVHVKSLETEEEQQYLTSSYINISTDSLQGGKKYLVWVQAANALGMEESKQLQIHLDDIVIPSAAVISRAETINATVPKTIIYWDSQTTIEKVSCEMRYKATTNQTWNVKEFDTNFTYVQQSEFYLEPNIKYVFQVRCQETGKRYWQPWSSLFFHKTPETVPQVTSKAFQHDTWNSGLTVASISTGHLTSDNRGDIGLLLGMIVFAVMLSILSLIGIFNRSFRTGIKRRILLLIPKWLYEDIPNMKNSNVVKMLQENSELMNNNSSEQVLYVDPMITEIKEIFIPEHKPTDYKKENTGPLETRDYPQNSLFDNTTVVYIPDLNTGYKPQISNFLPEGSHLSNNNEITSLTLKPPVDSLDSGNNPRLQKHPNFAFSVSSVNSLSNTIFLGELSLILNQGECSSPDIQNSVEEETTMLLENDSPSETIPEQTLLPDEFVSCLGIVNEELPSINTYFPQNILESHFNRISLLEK
- Method description: IL23R Reporter Assay
- Type: cell-based
- Measurement context: HEK293 cells containing IL-23R, IL-12RP1 and STAT-inducible firefly luciferase reporter; 10 ng/mL IL-23 (EC90); 5 h at 37° C.; read-out: IL23R Reporter Assay
pIC50: −log10 of the molar value.
Property measured: pIC50

Compound	Subject of test	Property measured	Observed result
CC(=O)NC(COCCOCC[N+](C)(C)C)C(=O)N[C@@H]1C(=O)N[C@@H](CC(=O)N(C)C)C(=O)N[C@@H]([C@@H](C)O)C(=O)N[C@@H](Cc2c[nH]c3c(C)cccc23)C(=O)N[C@@H](CCCCN(C)C(C)=O)C(=O)N[C@H](C(=O)N[C@@H](Cc2ccc(OCCn3cc(CCCC[N+](C)(C)C)nn3)cc2)C(=O)N[C@@H](Cc2ccc3ccccc3c2)C(=O)NC2(C(=O)N[C@@H](CCCCN(C)C(C)=O)C(=O)N[C@@H](CC(N)=O)C(=O)N[C@@H](Cc3cccnc3)C(=O)N(C)CC(=O)N(C)C)CCOCC2)C(C)(C)SSC1(C)C (mixture of isomers) [compound 545]	IL-23R (Homo sapiens, UniProt Q5VWK5)	pIC50	9.08
CC(=O)N(C)CCCC[C@@H]1NC(=O)[C@H](Cc2c[nH]c3ccccc23)NC(=O)[C@H]([C@@H](C)O)NC(=O)[C@H](CC(=O)N(C)C)NC(=O)[C@@H](NC(=O)CCOCCOCC[N+](C)(C)C)C(C)(C)SSC(C)(C)[C@@H](C(=O)N[C@@H](Cc2ccc(OCCOCCOCC[N+](C)(C)C)cc2)C(=O)N[C@@H](Cc2c[nH]c3ccccc23)C(=O)NC2(C(=O)N[C@@H](CCCCN(C)C(C)=O)C(=O)N[C@@H](CC(N)=O)C(=O)N[C@H]3Cc4cnccc4N(CC(=O)N(C)C)C3=O)CCOCC2)NC1=O [compound 564]	IL-23R (Homo sapiens, UniProt Q5VWK5)	pIC50	6.74

###

Quick list: pIC50 per entry.
- Subject of test: IL-23R (Homo sapiens, UniProt Q5VWK5)
- Construct: host or cells: HEK293
- Method description: IL23R Reporter Assay
- Format: cell-based
- Measurement context: HEK293 cells containing IL-23R, IL-12RP1 and STAT-inducible firefly luciferase reporter; 10 ng/mL IL-23 (EC90); 5 h at 37° C.; read-out: IL23R Reporter Assay
pIC50: −log10 of the molar value. Positions of bridges follow the written chain, without caps; N, C: chain ends. Non-standard residues stand in square brackets, D forms with d. Residues, ends and D or L forms follow the SMILES beside them. Trp(7-Me) = Cc1cccc2c(C[C@H](N)C(=O)O)c[nH]c12; 2Nal = N[C@@H](Cc1ccc2ccccc2c1)C(=O)O; AEF = NCCOc1ccc(C[C@H](N)C(=O)O)cc1; Pen = CC(C)(S)[C@H](N)C(=O)O; Thp = NC1(C(=O)O)CCOCC1

Compound	pIC50
CC(=O)NCCCC[C@@H]1NC(=O)[C@H](Cc2c[nH]c3c(C)cccc23)NC(=O)[C@H]([C@@H](C)O)NC(=O)[C@H](CC(N)=O)NC(=O)[C@@H](NC(=O)COc2ccc(-c3ccc(F)cc3F)cc2C(=O)O)C(C)(C)SSC(C)(C)[C@@H](C(=O)N[C@@H](Cc2ccc(OCCCCC[N+](C)(C)C)cc2)C(=O)N[C@@H](Cc2ccc3ccccc3c2)C(=O)NC2(C(=O)N[C@@H](CCCCNC(C)=O)C(=O)N[C@@H](CC(N)=O)C(=O)N[C@@H](Cc3cccnc3)C(=O)N(C)CC(N)=O)CCOCC2)NC1=O	8.43
CC(=O)NCCCC[C@@H]1NC(=O)[C@H](Cc2c[nH]c3c(C)cccc23)NC(=O)[C@H]([C@@H](C)O)NC(=O)[C@H](CC(N)=O)NC(=O)[C@@H](NC(C)=O)C(C)(C)SSC(C)(C)[C@@H](C(=O)N[C@@H](Cc2ccc(OCCN)cc2)C(=O)N[C@@H](Cc2ccc3ccccc3c2)C(=O)NC2(C(=O)N[C@@H](CCCCNC(C)=O)C(=O)N[C@@H](CC(N)=O)C(=O)N(C)C)CCOCC2)NC1=O [compound 153] (Ac-[Pen]NT[Trp(7-Me)]K(Ac)[Pen][AEF][2Nal][Thp]K(Ac)N-NMe2; disulfide 1-6 (inferred))	6.57
